Literature-derived IC50 for UniProt:Q96GD4 follows.

Cc1cc(Nc2cc(N3CCC(N4CCOCC4)CC3)nc(/C=C/c3ccccc3)n2)n[nH]1 | ≤ 100 nM
COc1cc2c(Oc3ccc(NCc4ccccc4)cc3)ccnc2cc1OCC[C@H](N)C(=O)O | 2000 to 5000 nM
NC(=O)[C@H]1[C@H]2C[C@H]3[C@H]1Nc1nc(ncc1F)Nc1cccc(c1)[C@H](OCCCN1CCOCC1)CS[C@@H]3C2 | 101 to 1000 nM
O=C(N[C@@H](c1ccccc1)C1CC1)c1ccc2[nH]nc(-c3ccc(N4CCOCC4)cc3)c2c1 | ≤ 5000 nM

Record IC50 for all entries; do not skip any.
1. O=C1Nc2ccc(F)cc2/C1=C/c1ccc2cn[nH]c2c1
2. NC(=O)[C@H]1[C@H]2C[C@H]3[C@H]1Nc1nc(ncc1F)Nc1cccc(c1)CNC(=O)N[C@@H]3C2
3. COc1ccc2c(c1)/C(=C\c1ccc3c(/C=C/c4ccncc4)n[nH]c3c1)C(=O)N2
4. COc1cc2c(Oc3ccc(NC(=O)Nc4ccc(C(F)(F)F)cc4)cc3)ccnc2cc1OCC[C@H](N)C(=O)OC1CCCC1
5. Cc1cc(Nc2nc(CC3(c4ncon4)CCN(C(=O)c4cccc(Cl)c4F)CC3)ccc2F)n[nH]1

## Output
1: < 5000 nM; 2: 1 to 100 nM; 3: < 5000 nM; 4: 2000 to 5000 nM; 5: 190 nM
